# System: K. pneumoniae (ATCC 13883)
# Format: cell-based, Klebsiella pneumoniae
# CONDITION NOTES: K. pneumoniae ATCC 13883; MHB-II, inoculum 5 × 10^5 CFU/mL, 37 °C, 18–24 h, triplicate
Positions of bridges follow the written chain, without caps; N, C: chain ends. Non-standard residues stand in square brackets, D forms with d. Residues, ends and D or L forms follow the SMILES beside them. *: point of attachment. Myristoyl = CCCCCCCCCCCCCC(=O)*; X1 = CC[C@H](C)CCCCC(=O)*; Dab = NCC[C@H](N)C(=O)O
Known MIC KP of a selection of compounds

CC[C@@H](C)[C@@H](NC(=O)[C@@H](CCCCN)NC(=O)[C@@H](CCCCN)NC(=O)[C@@H](Cc1ccccc1)NC(=O)[C@@H](CC(C)C)NC(=O)[C@@H](CCCCN)NC(=O)[C@H](N)CCCCN)C(=O)N[C@H](CC(C)C)C(=O)N[C@H](CCCNC(=N)N)C(=O)N[C@H](Cc1ccc(O)cc1)C(=O)N[C@H](CC(C)C)C(N)=O [BP214, reference compound] (H-[dK][dK][dL][dF][dK][dK][dI][dL][dR][dY][dL]-NH2; N-terminus assumed) :: 2 µg/mL
CC[C@H](C)CCCCC(=O)N[C@@H](CCN)C(=O)N[C@H](C(=O)N[C@@H](CCN)C(=O)N[C@H]1CCNC(=O)[C@H]([C@@H](C)O)NC(=O)[C@H](CCN)NC(=O)[C@H](CCN)NC(=O)[C@H](CC(C)C)NC(=O)[C@@H](CC(C)C)NC(=O)[C@H](CCN)NC1=O)[C@@H](C)O [Colistin, reference compound] (X1-[Dab]T[Dab][Dab][Dab][dL]L[Dab][Dab]T; lactam 4-C (inferred); N-terminus assumed) :: 0.5 µg/mL
CCCCCCCCCCCCCC(=O)N[C@H](CCCCN)C(=O)N[C@H](CCCCN)C(=O)N[C@H](CC(C)C)C(=O)N[C@H](Cc1ccccc1)C(=O)N[C@H](CCCCN)C(=O)N[C@H](CCCCN)C(=O)N[C@@H](C(=O)N[C@H](CC(C)C)C(=O)N[C@H](CCCNC(=N)N)C(=O)N[C@H](Cc1ccc(O)cc1)C(=O)N[C@H](CC(C)C)C(N)=O)[C@H](C)CC [compound 6] (Myristoyl-[dK][dK][dL][dF][dK][dK][dI][dL][dR][dY][dL]-NH2) :: > 64 µg/mL

--- query ---
Give the reported value of MIC KP for this record: CCCCCCCCCC(=O)N[C@H](CCCCN)C(=O)N[C@H](CCCCN)C(=O)N[C@H](CC(C)C)C(=O)N[C@H](Cc1ccccc1)C(=O)N[C@H](CCCCN)C(=O)N[C@H](CCCCN)C(=O)N[C@@H](C(=O)N[C@H](CC(C)C)C(=O)N1CCCC[C@H](C(N)=O)NC(=O)[C@@H](Cc2ccc(O)cc2)NC(=O)[C@@H](CCCNC(=N)N)NC(=O)C1)[C@H](C)CC
8 µg/mL
